These measurements were taken from paper PMC7413021.

- method: Measurement of phenolics in plasma
- Type: in vivo
- particulars: 2 months old male mice fed diet containing 25% dried plum for 4 weeks
Below is a list of entries, each paired with its recorded plasma concentration, CMin value.

{"molecule": "COc1cc(/C=C/C(=O)O)ccc1O[C@@H]1O[C@H](C(=O)O)[C@@H](O)[C@H](O)[C@H]1O [Ferulic acid 4-O-glucuronide]", "plasma concentration, CMin": "1100 nM"}
{"molecule": "COc1cc(CCC(=O)O)ccc1O[C@@H]1O[C@H](C(=O)O)[C@@H](O)[C@H](O)[C@H]1O [Dihydroferulic acid 4-O-glucuronide]", "plasma concentration, CMin": "3270 nM"}
{"molecule": "COc1ccc(/C=C/C(=O)O)cc1O[C@@H]1O[C@H](C(=O)O)[C@@H](O)[C@H](O)[C@H]1O [Isoferulic acid 3-O-glucuronide]", "plasma concentration, CMin": "20 nM"}
{"molecule": "COc1ccc(CCC(=O)O)cc1O[C@@H]1O[C@H](C(=O)O)[C@@H](O)[C@H](O)[C@H]1O [Dihydroisoferulic acid 3-O-glucuronide]", "plasma concentration, CMin": "420 nM"}
